test system: CEM cells HIV-1 protection, formazan growth assay; experiment: NCI AIDS Antiviral Assay; settings: measured here: growth of uninfected CEM cells
metric-name: IC50

> print(dat)
                                    molecule                               test.system  metric.name  assay.value
 1  CC(=O)OC/C=C/[C@H](O[Si](C)(C)C(C)(C)C)[C@@H](O)/C=C/COC(C)=O  CEM cells HIV-1 protection, formazan growth assay         IC50       162 µM
 2  CC1CCC(=NNS(=O)(=O)c2ccc(N)cc2)CC1 (stereo not drawn)  CEM cells HIV-1 protection, formazan growth assay         IC50     > 129 µM
 3          c1cnc2c(c1)-n1cccc1C1(CCSCC1)NN2  CEM cells HIV-1 protection, formazan growth assay         IC50    > 60.3 µM
 4  O=C(NC1CCC(=O)N1C(=O)OCc1ccccc1)OCc1ccccc1 (stereo not drawn)  CEM cells HIV-1 protection, formazan growth assay         IC50     > 200 µM
 5  COC(=O)C1=C(SC)SC2(C(=O)OC)C3C=C(C)C4C(N13)C42C(=O)OC (stereo not drawn)  CEM cells HIV-1 protection, formazan growth assay         IC50    > 3.63 µM
 6  COc1cc2nc(CCc3nc4cc(OC)c(OC)cc4[nH]3)[nH]c2cc1OC  CEM cells HIV-1 protection, formazan growth assay         IC50      12.3 µM
 7             O=C1OC(=Nc2ccccc2Cl)c2ccccc21  CEM cells HIV-1 protection, formazan growth assay         IC50     > 200 µM
 8  C[C@@H](CO)C1=C(O)c2ccc3c(c2C(=O)C1=O)CCCC3(C)C  CEM cells HIV-1 protection, formazan growth assay         IC50      15.1 µM
 9  CCOc1ccc(N2C(=O)C3c4[nH]c5ccccc5c4C4CCC(C(C)(C)C)CC4C3C2=O)cc1 (stereo not drawn)  CEM cells HIV-1 protection, formazan growth assay         IC50    > 2.19 µM
10  COC(=O)C(C)(N=Cc1ccccc1)c1ccccc1 (stereo not drawn)  CEM cells HIV-1 protection, formazan growth assay         IC50     > 200 µM
11  CC(=O)OC1C(CN2CCOC2=O)OC(n2ccc(=O)[nH]c2=O)C1OC(C)=O (stereo not drawn)  CEM cells HIV-1 protection, formazan growth assay         IC50     > 200 µM
12  CCCC1N2CCCCC2[C@@H]2c3[nH]c4ccccc4c3CCN12 (stereo partly drawn)  CEM cells HIV-1 protection, formazan growth assay         IC50     > 427 µM
13  COC(=O)C(C(=O)C(=O)Nc1ccc(Br)cc1)c1nc2ccc(Cl)cc2[nH]c1=O (stereo not drawn)  CEM cells HIV-1 protection, formazan growth assay         IC50      4.07 µM

----------
system: CEM cells HIV-1 protection, formazan growth assay; experiment: NCI AIDS Antiviral Assay; settings: measured here: growth of uninfected CEM cells
pIC50: −log10 of the molar value.
Documented pIC50 across a set of compounds
metric-name: pIC50

> print(dat)
                                   compound  comparison.sign  assay.value
1      N.N.N.N.N.N#Cc1nn[n-]n1.[Cl-].[Co+3]                <         3.09
2  C#CCNC(CCCN=C(N)N)C(=O)O (stereo not drawn)                <         3.70
3  COc1cc(/C=C/C(=O)c2cc(Cl)cc(Cl)c2O)cc(OC)c1OC                =         5.69
4   COC(=O)c1ccc(CCC2=CC(=O)C(Br)=CC2=O)cc1                =         5.03
5                  O=c1c2ccccc2nnn1N1CCOCC1                <         4.09
6  COc1ccc(-c2c(C)c(C(=O)O)nc(-c3ccc4c(O)c(OC)c5c(c4n3)=NC(C)(C)N=5)c2N)c(O)c1OC                =         5.62
7  OCC(O)C(O)C(O)c1nc2ccccc2s1 (stereo not drawn)                =         3.92
8    CCN(CC)CCNc1ccc(CO)c2sc3ccccc3c(=O)c12                =         2.57

----------
system: CEM cells HIV-1 protection, formazan growth assay; assay: NCI AIDS Antiviral Assay
Documented EC50 across a set of molecules
metric-name: EC50

> print(dat)
                                   molecule  assay.value
1  C=CCC1(CC(=O)O)CC=CCC12OCCO2 (centres undefined)     > 200 µM
2  NC1=NN(c2ccccc2)C(=O)C1C(=O)C(=O)Nc1ccc(Cl)c(Cl)c1 (centres undefined)     > 331 µM
3       CCC[N+]1=C/c2ccccc2OC(=O)/C=C\1[O-]     > 200 µM
4  CC12CCC(C(=O)OC1=O)C2(C)C (centres undefined)     > 200 µM
5       COc1cccc(/C=C(\C#N)C(=O)c2ccccc2)c1    > 97.7 µM
6  CSc1nc(NC(=O)c2ccc([N+](=O)[O-])cc2)c(C(=O)NC(C)C)s1     > 200 µM
7  O=C1c2cc3c(cc2CC12Cc1cc4c(cc1C2)CCC4)CCC3     > 200 µM
8         Fc1cc(-c2ncc(Cl)cc2Cl)c2cccccc1-2     > 100 µM
9  CC(NNC(=O)CC(=O)N(C(=O)c1ccccc1)c1ccc(Cl)cc1)c1cc2ccccc2oc1=O (centres undefined)     > 200 µM

----------
test system: CEM cells HIV-1 protection, formazan growth assay; assay: NCI AIDS Antiviral Assay; conditions: measured here: growth of uninfected CEM cells
metric-name: IC50

> print(dat)
                                   compound                               test.system  metric.name  assay.value
1          CCCC(=O)OCC(COC(=O)CCC)OC(=O)CCC  CEM cells HIV-1 protection, formazan growth assay         IC50     > 200 µM
2                Nc1nc(Cl)cc(NC2(CO)CCC2)n1  CEM cells HIV-1 protection, formazan growth assay         IC50     > 200 µM
3  CC(C)n1c(=O)c2nn3c(=O)n(C(C)C)c(=O)c3nn2c1=O  CEM cells HIV-1 protection, formazan growth assay         IC50     > 200 µM
4  CCCCN1C(CO)C(O)C(O)C(O)C1CO (stereo unspecified)  CEM cells HIV-1 protection, formazan growth assay         IC50     > 200 µM
5  CC1=NC(C)CNC(C)(C)CC(C)=NC(C)CNC(C)(C)C1 (stereo unspecified)  CEM cells HIV-1 protection, formazan growth assay         IC50     > 200 µM
6  CCN1CCC(O)(/C=C/c2ccc(OC)cc2)C(C(=O)/C=C/c2ccc(OC)cc2)C1 (stereo unspecified)  CEM cells HIV-1 protection, formazan growth assay         IC50     > 479 µM

----------
tested on: CEM cells HIV-1 protection, formazan growth assay; test: NCI AIDS Antiviral Assay
pEC50: −log10 of the molar value.
Documented pEC50 across a set of compounds

compound	pEC50
COc1ccccc1C(=O)NO	< 3.70
NC(=O)CN1CCN(CCCN2c3ccccc3Sc3ccc(Cl)cc32)CC1	< 3.70
CC(C)CCCC(C)[C@H]1CC[C@@H]2[C@H]3CC[C@H]4C[C@@H](CCC=C(c5cc(Cl)c(OCc6ccc([N+](=O)[O-])cc6)c(C(=O)OCc6ccc([N+](=O)[O-])cc6)c5)c5cc(Cl)c(OCc6ccc([N+](=O)[O-])cc6)c(C(=O)OCc6ccc([N+](=O)[O-])cc6)c5)CC[C@]4(C)[C@@H]3CC[C@]12C (some centres undefined)	4.63
CNC(=O)CCNC(=O)CCC(=O)OC	< 3.70
CCOC(=O)c1ccc(CSc2ccccc2C(=O)O)cc1	< 4.78
COC(=O)[C@@]1(C)CCC[C@]2(C)C3(O)C(C)C(=O)O[C@H](c4ccoc4)C3C(OC(C)=O)C21O (some centres undefined)	< 3.70
c1ccc(/N=N/c2ccccn2)nc1	< 3.70
COc1cc2c(cc1OC)C13CCN4CC5CCOC6CC(=O)N2C1C6C5CC43 (centres undefined)	< 3.70
O=c1ccc2c(-c3ccccc3O)c3ccc(O)cc3oc-2c1	< 4.02

----------
tested on: CEM cells HIV-1 protection, formazan growth assay; experiment: NCI AIDS Antiviral Assay; conditions: measured here: growth of uninfected CEM cells
Documented IC50 across a set of molecules
metric-name: IC50

> print(dat)
                                   molecule                               test.system  assay.value
1  CC1=C2CN(C(=O)OCC(C)C)CCC2C2=C(C(=O)c3ccccc3C2=O)C1C (centres undefined)  CEM cells HIV-1 protection, formazan growth assay     > 100 µM
2          O=C1/C(=C/c2cccc(F)c2)Cc2ccccc21  CEM cells HIV-1 protection, formazan growth assay    > 30.2 µM
3  CC(/C=C/C(=O)c1sc(C(N)=S)nc1C)=C\c1ccccc1  CEM cells HIV-1 protection, formazan growth assay    > 79.4 µM
4  CSc1nc2c(nc(C)c(=O)n2C2OCC(OC(C)=O)C(OC(C)=O)C2OC(C)=O)c(=O)[nH]1 (centres undefined)  CEM cells HIV-1 protection, formazan growth assay     > 513 µM
5           CN(C)C(=S)Sc1nsc(SC(=S)N(C)C)n1  CEM cells HIV-1 protection, formazan growth assay     > 200 µM
6       CC(C)c1cccc(C(C)C)c1NC(=O)CCC(=O)NN  CEM cells HIV-1 protection, formazan growth assay     > 324 µM
7   CCCCCCCCCCCC1=C(NCCN)C(=O)C=C(NCCN)C1=O  CEM cells HIV-1 protection, formazan growth assay       > 2 µM
8        Cc1nc2nnc(C)n2c2c1C(=O)Nc1ccccc1N2  CEM cells HIV-1 protection, formazan growth assay     > 200 µM
9  CCCCCCCCCCCc1c2oc3ccc([N+](=O)[O-])cc3nc-2cc(Nc2cc([N+](=O)[O-])ccc2O)c1=O  CEM cells HIV-1 protection, formazan growth assay    > 3.31 µM
